System: rabbit aortic rings
Assay protocol: Assay B: In vitro vascular smooth muscle response for AII (antagonist activity, pA2)
Format: cell-based
Test parameters: Oryctolagus cuniculus, two values in a cell = two determinations
What log10 of Kb was measured for each of the following?
The common logarithm of Kb in nM is what is listed.

Endpoint output: log10 of Kb of CCCCc1cn(C2CCCCC2(C)C)c(=O)n1Cc1ccc(-c2ccccc2-c2nnn[nH]2)nc1 (centres unmarked) [Compound 248] . Value?
1.32

Endpoint output: log10 of Kb of CCCCc1nc(Cc2ccc(-c3ccccc3C(=O)O)cc2)nn1CCCC [Compound 138] . Value?
0.80

Endpoint output: log10 of Kb of CCCCc1nc(C2CCCCC2)nn1Cc1ccc(-c2ccccc2-c2nnn[nH]2)cc1 [Compound 77] . Value?
3.23

Endpoint output: log10 of Kb of CCCCc1nc(CCCN)n(Cc2ccc(-c3ccccc3-c3nnn[nH]3)cc2)n1 [Compound 82] . Value?
0.50

Endpoint output: log10 of Kb of CCCCn1cc(CC(C)C)n(Cc2ccc(-c3ccccc3-c3nnn[nH]3)nc2)c1=O [Compound 199] . Value?
0.21

Endpoint output: log10 of Kb of CCCCc1nc(C)n(Cc2ccc(-c3ccccc3C(=O)O)cc2)n1 [Compound 88] . Value?
1.30

Endpoint output: log10 of Kb of CCCCc1cn(C2CCCCC2)c(=O)n1Cc1ccc(-c2ccccc2-c2nnn[nH]2)cc1 [Compound 147] . Value?
3.40

Endpoint output: log10 of Kb of CCCCc1nc(CCC2CCCCC2)n(Cc2ccc(-c3ccccc3-c3nnn[nH]3)cc2)n1 [Compound 53] . Value?
1.44

---

What pIC50 was measured for each of the following?
Tgt: angiotensin II AT1 receptor
Assay protocol: Assay A: Angiotensin II binding activity, rat uterine membrane preparation, 125I-AII displacement
Field pIC50 (float): negative decimal logarithm of the concentration in molar.

Endpoint output: pIC50 of `CCCCc1nn(CCC2CCCCC2)c(=O)n1Cc1ccc(-c2ccccc2-c2nn[nH]n2)cc1` . Value?
8.36

Endpoint output: pIC50 of `CCCCc1nc(Cc2ccc(-c3ccccc3C(=O)O)cc2)n(CCCC)n1` . Value?
6.66

Endpoint output: pIC50 of `CCCCc1nc(CCC(C)C)nn1Cc1ccc(-c2ccccc2-c2nnn[nH]2)cc1` . Value?
6.24

Endpoint output: pIC50 of `CCCCc1cn(CCCC)c(=O)n1Cc1ccc(-c2cnccc2-c2nnn[nH]2)cc1` . Value?
8.31

Endpoint output: pIC50 of `CCCCc1nc(CC(CC)CC)nn1Cc1ccc(-c2ccccc2-c2nnn[nH]2)nc1` . Value?
6.28

Endpoint output: pIC50 of `CCCCc1cn(C)c(=O)n1Cc1ccc(-c2ccccc2-c2nnn[nH]2)nc1` . Value?
7.70

Endpoint output: pIC50 of `CCCCc1nc(-c2ccccc2)nn1Cc1ccc(-c2ccccc2-c2nnn[nH]2)cc1` . Value?
7.80

Endpoint output: pIC50 of `CCCCc1nc(-c2ccccc2C(C)C)n(Cc2ccc(-c3ccccc3-c3nnn[nH]3)nc2)n1` . Value?
8.20

Endpoint output: pIC50 of `CCCCc1cn(CC)c(=O)n1Cc1ccc(-c2ccccc2-c2nnn[nH]2)nc1` . Value?
8.27

Endpoint output: pIC50 of `CCCCc1nc(CCCC)n(Cc2ccc(-c3ccncc3-c3nnn[nH]3)cc2)n1` . Value?
7.14

Endpoint output: pIC50 of `CCCCc1nc(CCC(C)C)n(Cc2ccc(-c3ccccc3-c3nnn[nH]3)cc2)n1` . Value?
6.74

Endpoint output: pIC50 of CCCCc1nn(CC(OCc2ccccc2)c2ccccc2)c(=O)n1Cc1ccc(-c2ccccc2-c2nn[nH]n2)cc1 (centres unmarked) . Value?
6.14

Endpoint output: pIC50 of CCCCc1nn(CCC(C)CC(C)(C)C)c(=O)n1Cc1ccc(-c2ccccc2-c2nn[nH]n2)cc1 (centres unmarked) . Value?
7.92

Endpoint output: pIC50 of CCCCc1nc(CNC(=O)CCC(NC(C)=O)C(=O)OC(C)(C)C)nn1Cc1ccc(-c2ccccc2-c2nnn[nH]2)cc1 (centres unmarked) . Value?
7.00

Endpoint output: pIC50 of `CCCCc1cn(C2CCCCC2)c(=O)n1Cc1ccc(-c2ccccc2-c2nnn[nH]2)cc1` . Value?
8.24

Endpoint output: pIC50 of `CCCCc1nc2c(O)nnc(O)c2n1Cc1ccc(-c2ccccc2-c2nnn[nH]2)cc1` . Value?
7.34

Endpoint output: pIC50 of `CCCCc1nc(CCC2CCCCC2)n(Cc2ccc(-c3ccccc3-c3nnn[nH]3)cc2)n1` . Value?
7.19

Endpoint output: pIC50 of `CCCCc1nc(CCCC)n(Cc2ccc(-c3ncccc3-c3nnn[nH]3)cc2)n1` . Value?
8.39

Endpoint output: pIC50 of `CCCCc1nc(CC2CCCCC2)nn1Cc1ccc(-c2ccccc2-c2nnn[nH]2)cc1` . Value?
8.06

Endpoint output: pIC50 of `CCCCc1nc(CCCC)n(Cc2ccc(-c3ccccc3C(=O)O)cc2)n1` . Value?
7.77

Endpoint output: pIC50 of `CCCc1nc(CCC)n(Cc2ccc(-c3ccccc3-c3nnn[nH]3)nc2)n1` . Value?
6.80

Endpoint output: pIC50 of `CCCCc1nn(CC(=O)OCC)c(=O)n1Cc1ccc(-c2ccccc2-c2nn[nH]n2)cc1` . Value?
6.55

Endpoint output: pIC50 of COC(=O)CC[C@]1(O)CC[C@H]2[C@@H]3C4CC4C4=CC(=O)CC[C@]4(C)[C@]34OC4C[C@@]21C (some centres unmarked) . Value?
7.08

Endpoint output: pIC50 of CCCCc1cn(C2C3CC4CC(C3)CC2C4)c(=O)n1Cc1ccc(-c2ccccc2-c2nnn[nH]2)nc1 (centres unmarked) . Value?
7.04

Endpoint output: pIC50 of `CCCCc1nc(-c2ccccc2C(C)C)nn1Cc1ccc(-c2ccccc2-c2nnn[nH]2)nc1` . Value?
7.89

Endpoint output: pIC50 of COC(=O)[C@@H]1CC2=CC(=O)CC[C@]2(C)C23O[C@@H]2C[C@@]2(C)[C@@H](CC[C@@]2(O)CCC(=O)O)[C@H]13.[K+] (some centres unmarked) . Value?
6.70

Endpoint output: pIC50 of `CCCCc1nc(CCCN)n(Cc2ccc(-c3ccccc3-c3nnn[nH]3)cc2)n1` . Value?
8.10

Endpoint output: pIC50 of CCCCc1nn(CC(O)c2ccccc2)c(=O)n1Cc1ccc(-c2ccccc2-c2nn[nH]n2)cc1 (centres unmarked) . Value?
5.24

Endpoint output: pIC50 of `CCCCn1nc(C(OCCC)OCCC)nc1Cc1ccc(-c2ccccc2-c2nnn[nH]2)nc1` . Value?
6.85

Endpoint output: pIC50 of `CCCCc1nc(C(F)(F)CCC)n(Cc2ccc(-c3ccccc3-c3nnn[nH]3)cc2)n1` . Value?
6.34

Endpoint output: pIC50 of `CCCCc1nc(Cc2ccc(-c3ccccc3-c3nnn[nH]3)nc2)n(CCCC)n1` . Value?
7.55

Endpoint output: pIC50 of `CCCCc1nc(C)nn1Cc1ccc(-c2ccccc2-c2nnn[nH]2)cc1` . Value?
7.72

---

Tgt: angiotensin II AT1 receptor
Assay protocol: Assay A: Angiotensin II binding activity, rat uterine membrane preparation, 125I-AII displacement
What pIC50 was measured for each of the following?
Field pIC50 (float): negative decimal logarithm of the concentration in molar.

Reported pIC50 for angiotensin II AT1 receptor, given `CCCCc1cn(CCc2cccs2)c(=O)n1Cc1ccc(-c2ccccc2-c2nnn[nH]2)cc1` ?
9.32

Reported pIC50 for angiotensin II AT1 receptor, given `CCCCn1nc(C(C)(F)F)nc1Cc1ccc(-c2ccccc2-c2nnn[nH]2)nc1` ?
7.59

Reported pIC50 for angiotensin II AT1 receptor, given `CCCCc1cn(-c2c(F)cccc2F)c(=O)n1Cc1ccc(-c2ccccc2-c2nnn[nH]2)nc1` ?
8.44

Reported pIC50 for angiotensin II AT1 receptor, given `CCCCc1cn(-c2c(C(C)C)cccc2C(C)C)c(=O)n1Cc1ccc(-c2ccccc2-c2nnn[nH]2)nc1` ?
7.14

Reported pIC50 for angiotensin II AT1 receptor, given `CCCCc1nc(CCCC)n(Cc2ccc(-c3cnccc3-c3nnn[nH]3)cc2)n1` ?
7.92

Reported pIC50 for angiotensin II AT1 receptor, given `CCCCCc1nc(Cc2ccc(-c3ccccc3-c3nnn[nH]3)nc2)n(CCCC)n1` ?
6.43

Reported pIC50 for angiotensin II AT1 receptor, given `CCCCc1nc(CCCC)n(Cc2ccc(-n3c(Cl)cc(Cl)c3-c3nnn[nH]3)cc2)n1` ?
7.01

Reported pIC50 for angiotensin II AT1 receptor, given `CCCCc1cn(CC(C)(C)C)c(=O)n1Cc1ccc(-c2ccccc2-c2nnn[nH]2)nc1` ?
7.29

Reported pIC50 for angiotensin II AT1 receptor, given `CCCCc1nc(CCCC2CCCCC2)n(Cc2ccc(-c3ccccc3-c3nnn[nH]3)cc2)n1` ?
8.07

Reported pIC50 for angiotensin II AT1 receptor, given `CCCCc1nc(-c2ccccc2)n(Cc2ccc(-c3ccccc3-c3nnn[nH]3)nc2)n1` ?
7.85

Reported pIC50 for angiotensin II AT1 receptor, given `CCCCc1cn(CCC(C)C)c(=O)n1Cc1ccc(-c2ccccc2-c2nnn[nH]2)nc1` ?
8.30

Reported pIC50 for angiotensin II AT1 receptor, given `CCCCc1cn(-c2cccn2CC)c(=O)n1Cc1ccc(-c2ccccc2-c2nnn[nH]2)nc1` ?
8.36

Reported pIC50 for angiotensin II AT1 receptor, given `CCCCc1nc(CF)n(Cc2ccc(-c3ccccc3-c3nnn[nH]3)cc2)n1` ?
4.92

Reported pIC50 for angiotensin II AT1 receptor, given `CCCCCCCCc1nc(CCCC)n(Cc2ccc(-c3ccccc3-c3nnn[nH]3)cc2)n1` ?
7.08

Reported pIC50 for angiotensin II AT1 receptor, given `CCCCc1nn(CCCc2ccccc2)c(=O)n1Cc1ccc(-c2ccccc2-c2nn[nH]n2)cc1` ?
7.46

Reported pIC50 for angiotensin II AT1 receptor, given `CCCCc1nc(-c2ccccc2)n(Cc2ccc(-c3ccccc3-c3nnn[nH]3)cc2)n1` ?
6.20

Values compiled from patent US20040102423A1.
